ASSAY TARGET: BRD4 BD1 (Homo sapiens)
Construct: His-tagged BRD4 BD1 (44-160)
METHOD: BRD4 BD1 Fluorescence Polarization (FP) competition binding assay
MEASUREMENT CONDITIONS: BRD4 BD1 40 nM, probe PFI-411FP 2 nM
MEASUREMENT KIND: pIC50
Recall that pIC50 is obtained by taking minus log10 of the concentration measured in molar.

[
  {
    "MOLECULE": "CCC(=O)N(C)c1ccc2nc(NCCC(=O)NC)c(=O)n([C@@H](CC)c3ccccn3)c2n1",
    "pIC50": 6.44
  },
  {
    "MOLECULE": "CC[C@@H](c1ccccc1)n1c(=O)c(NCCC(=O)O)nc2ccc(N(C)C(=O)C3COC3)nc21",
    "pIC50": 5.82
  },
  {
    "MOLECULE": "CCC(=O)N(C)c1ccc2nc(NCCC(=O)O)c(=O)n([C@@H]3COC[C@H]3c3ccccc3)c2n1",
    "pIC50": 4.99
  },
  {
    "MOLECULE": "CC[C@@H](c1ccccc1)n1c(=O)c(NCCC(=O)NC)nc2ccc(N(C)C(=O)C3CCO3)nc21 (stereo partly shown)",
    "pIC50": 6.83
  },
  {
    "MOLECULE": "CCC(=O)N(C)c1ccc2nc(NC)c(=O)n(C(COC)COC)c2n1",
    "pIC50": 5.97
  },
  {
    "MOLECULE": "CC[C@@H](COC)n1c(=O)c(NCCC(=O)O)nc2ccc(-c3c(C)noc3C)nc21",
    "pIC50": 6.45
  },
  {
    "MOLECULE": "CCC(=O)N(C)c1ccc2nc(NCC(=O)NC)c(=O)n([C@@H](CC)c3ccccc3)c2n1",
    "pIC50": 6.99
  },
  {
    "MOLECULE": "CCC(=O)N(C)c1ccc2nc(NCCC(=O)O)c(=O)n([C@@H](CC)c3ccccc3)c2n1",
    "pIC50": 7.21
  },
  {
    "MOLECULE": "CNc1nc2ccc(N(C)C(C)=O)nc2n([C@@H](C)c2ccccc2OC)c1=O",
    "pIC50": 6.19
  },
  {
    "MOLECULE": "CC[C@@H](c1ccccc1)n1c(=O)c(NCCC(=O)O)nc2ccc(N(C)C(=O)C(C)C)nc21",
    "pIC50": 6.81
  }
]

[in] What pIC50 appears in the records for this molecule with BRD4 BD1 (Homo sapiens)? CC[C@H](c1ccccc1)n1c(=O)c(NCCN2CCOCC2)nc2ccc(-c3c(C)noc3C)nc21
[out] 6.27

[in] What pIC50 appears in the records for this molecule with BRD4 BD1 (Homo sapiens)? CC[C@@H](c1ccccc1)n1c(=O)c(NCCN2CCOCC2)nc2ccc(-c3c(C)noc3C)nc21
[out] 6.91

[in] What pIC50 appears in the records for this molecule with BRD4 BD1 (Homo sapiens)? Cc1noc(C)c1-c1ccc2nc(NCCN3CCOCC3)c(=O)n([C@@H](C)c3ccccc3)c2n1
[out] 6.65

[in] What pIC50 appears in the records for this molecule with BRD4 BD1 (Homo sapiens)? CCC(=O)N(C)c1ccc2nc(NCCC(=O)O)c(=O)n([C@H](c3ccccn3)C(C)C)c2n1
[out] 6.80

[in] What pIC50 appears in the records for this molecule with BRD4 BD1 (Homo sapiens)? CC[C@H](COC)n1c(=O)c(NCCC(=O)O)nc2ccc(N(C)C(C)=O)nc21
[out] 5.41

[in] What pIC50 appears in the records for this molecule with BRD4 BD1 (Homo sapiens)? CC[C@@H](c1ccccc1)n1c(=O)c(NCCC(=O)O)nc2ccc(N(C)C(=O)C3CCC3)nc21
[out] 6.91
